Recorded measurements of koff, one per entry
target: T1, Gelatin-binding domain of human plasma fibronectin (human); assay: SPR; details: both partners purified
T1 construct: also called GBD; source: bought: Sigma-Aldrich
property label: koff (s⁻¹)

- LigAVar7'-8 (domain or fragment, biotin (in the ELISA)) LTVSNTNAKRGLGSTLKQGTVKVTASMGGIEDSVDFTVTQATLTSIEVSPTRASIAKGMTQKFTATGIFTDHSKKNITEQVTWKSSSKALSMLNAPGEEGTGKAIAVGKHYYYCNLRKTFRENRYYRYSRNSYFN: 0.00501
- LigAVar11 (domain or fragment, biotin (in the ELISA)) FQVTPAKVVSIEVIPNNISFAKGNSYQFKATGIYTDHSEADITEQVTWSSSNPKIASVENTFGSAGLVNTTNIGSTNITAKLSDTVSGASVLNVTPALLRY: 0.00599
- LigAVar13 (domain or fragment, biotin (in the ELISA)) ITISLSSISKTKGSTHQFKATGKFENGAEIDLTELVTWSSSNPTVVSISNVDDERGLATALSVGSSKISVDYNSISSSIDFEVTPEILASIKTEP: 0.0053
- LigAVar10 (domain or fragment, biotin (in the ELISA)) LSVTAAELIEIVLDPTSSHKAKGLTENFKATGVFTDNSTKDITDQVTWKSSKTAYAKISNATGSKRVVNAISKGTSHISATLGSISSANATFQVTPAKVV: 0.00506
- Histidine-tagged LigBCen2R (domain or fragment) TATYNSISENIDITVSAATLSSISISPINTNINATVSKQFFAVGTYSDGTKADLTSSVTWSSSNKSQAKVSNASKTKGLVTGIASGNSIITATYGSVSGNTILTVNKTDTI: 0.00923
